Where do the numbers come from? From patent US20260116991A1.

Target: T1, human GPC3 on CHO-K1-human GPC3 cells (CHOK1-hGPC3.2B5) (human, UniProt P51654 25-554)
T1 construct: whole, on cells
Assay: FACS, CHOK1-hGPC3.2B5 cells;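 further: flow cytometry of humanized antibodies binding to the cells over one hour in the cold, read as cell mean fluorescence intensity, with EC50 obtained by curve fitting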
MEASUREMENT LABEL: Max MFI (MFI)
Give your result in MFI as a bare value.

Entry hAb006LH1L1b (antibody, human IgG1, V domains shown, Humanized F3.38.7; VH H1 + VL L1b; expressed as human IgG1) VH: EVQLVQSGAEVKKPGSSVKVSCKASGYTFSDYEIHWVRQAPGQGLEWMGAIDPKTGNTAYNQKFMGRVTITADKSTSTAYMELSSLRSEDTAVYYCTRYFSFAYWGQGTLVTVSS VL: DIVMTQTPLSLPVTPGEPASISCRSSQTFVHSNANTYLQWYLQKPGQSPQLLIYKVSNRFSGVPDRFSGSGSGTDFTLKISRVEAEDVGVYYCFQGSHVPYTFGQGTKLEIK , Max MFI reported as 4630

Entry hAb007LH1L1c (antibody, human IgG1, V domains shown, Humanized F3.81.19; VH H1 + VL L1c; expressed as human IgG1) VH: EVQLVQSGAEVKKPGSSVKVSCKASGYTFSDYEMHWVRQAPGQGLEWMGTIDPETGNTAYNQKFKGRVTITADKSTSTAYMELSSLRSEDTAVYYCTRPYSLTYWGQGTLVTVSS VL: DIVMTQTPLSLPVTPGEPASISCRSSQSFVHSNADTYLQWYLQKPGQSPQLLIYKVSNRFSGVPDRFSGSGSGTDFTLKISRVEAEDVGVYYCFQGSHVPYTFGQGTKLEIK , Max MFI reported as 18200

Entry hAb001H1L1a (antibody, human IgG1, V domains shown, Humanized F2.169.2; VH H1 + VL L1a; expressed as human IgG1) VH: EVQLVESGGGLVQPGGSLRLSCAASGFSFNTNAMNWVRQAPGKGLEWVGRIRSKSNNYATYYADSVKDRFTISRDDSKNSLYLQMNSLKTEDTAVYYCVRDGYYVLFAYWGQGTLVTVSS VL: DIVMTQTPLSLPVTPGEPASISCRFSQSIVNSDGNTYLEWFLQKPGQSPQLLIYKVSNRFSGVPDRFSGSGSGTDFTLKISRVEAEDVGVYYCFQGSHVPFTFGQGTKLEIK , Max MFI reported as 2360

Entry hAb005LH1L1a (antibody, human IgG1, V domains shown, Humanized F3.54.12; VH H1 + VL L1a; expressed as human IgG1) VH: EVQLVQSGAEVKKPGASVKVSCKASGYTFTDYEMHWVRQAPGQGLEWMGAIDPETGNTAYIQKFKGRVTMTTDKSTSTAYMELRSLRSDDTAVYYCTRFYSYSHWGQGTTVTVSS VL: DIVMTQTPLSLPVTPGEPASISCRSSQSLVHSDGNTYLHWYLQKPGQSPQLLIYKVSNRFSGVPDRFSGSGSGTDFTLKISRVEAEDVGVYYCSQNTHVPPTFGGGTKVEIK , Max MFI reported as 122
